# Test system: NCI-H2228;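 note: growth inhibition of human NCI-H2228 cells, read out by a cell viability assay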
# Protocol: cells
# Type: functional, cell-based
# Experimental conditions: Homo sapiens
# Description: SANGER: Inhibition of human NCI-H2228 cell growth in a cell viability assay.
Measure name: IC50 (nM)

[[record]]
molecule = "CC(O)(CS(=O)(=O)c1ccc(F)cc1)C(=O)Nc1ccc(C#N)c(C(F)(F)F)c1 (configuration not stated) [BICALUTAMIDE]"
measurement_qualifier = ">"
measured_result = 1020

[[record]]
molecule = "CC[C@@]1(O)C(=O)OCc2c1cc1n(c2=O)Cc2cc3ccccc3nc2-1"
measurement_qualifier = "="
measured_result = 49

[[record]]
molecule = "C[C@]12O[C@H](C[C@]1(O)CO)n1c3ccccc3c3c4c(c5c6ccccc6n2c5c31)CNC4=O"
measurement_qualifier = ">"
measured_result = 2000

[[record]]
molecule = "N#C/C(=C1/Nc2ccccc2S1)c1ccnc(NCCc2cccnc2)n1"
measurement_qualifier = "="
measured_result = 4480

[[record]]
molecule = "CC[C@]1(O)C[C@@H]2CN(CCc3c([nH]c4ccccc34)[C@@](C(=O)OC)(c3cc4c(cc3OC)N(C)[C@H]3[C@@](O)(C(=O)OC)[C@H](OC(C)=O)[C@]5(CC)C=CCN6CC[C@]43[C@@H]65)C2)C1"
measurement_qualifier = "="
measured_result = 41.1

[[record]]
molecule = "Cn1c(=O)n(-c2ccc(C(C)(C)C#N)cc2)c2c3cc(-c4cnc5ccccc5c4)ccc3ncc21"
measurement_qualifier = "="
measured_result = 88.3

[[record]]
molecule = "C/C=C(/C)C(=O)O[C@H]1C(C)=C2[C@H]([C@@H]1OC(=O)CCCCCCC)[C@@](C)(OC(C)=O)C[C@H](OC(=O)CCC)[C@@]1(O)[C@H]2OC(=O)[C@@]1(C)O"
measurement_qualifier = "="
measured_result = 8


----------
# System: SK-PN-DW;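 note: growth inhibition measured with a viability assay on these cells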
# Protocol: cells
# Format: functional, cell-based
# Experimental conditions: Homo sapiens
# Description: SANGER: Inhibition of human SK-PN-DW cell growth in a cell viability assay.
Measured IC50, listed per entry.
Measure name: IC50 (nM)

[[record]]
molecule = "O=c1[nH]c2ccccc2n1C1CCN(Cc2ccc(-c3nc4cc5[nH]cnc5cc4nc3-c3ccccc3)cc2)CC1"
measure_name = "IC50"
scale_unit = "nM"
measurement_qualifier = ">"
measured_result = 2560

[[record]]
molecule = "CC[C@]1(O)C[C@@H]2CN(CCc3c([nH]c4ccccc34)[C@@](C(=O)OC)(c3cc4c(cc3OC)N(C)[C@H]3[C@@](O)(C(=O)OC)[C@H](OC(C)=O)[C@]5(CC)C=CCN6CC[C@]43[C@@H]65)C2)C1"
measure_name = "IC50"
scale_unit = "nM"
measurement_qualifier = "="
measured_result = 6.14

[[record]]
molecule = "O=c1cc(N2CCOCC2)oc2c(-c3cccc4c3sc3ccccc34)cccc12"
measure_name = "IC50"
scale_unit = "nM"
measurement_qualifier = ">"
measured_result = 2000

[[record]]
molecule = "COc1cc(C)c(Sc2cnc(NC(=O)c3ccc(CNC(C)C(C)(C)C)cc3)s2)cc1C(=O)N1CCN(C(C)=O)CC1 (configuration not stated)"
measure_name = "IC50"
scale_unit = "nM"
measurement_qualifier = "="
measured_result = 10200

[[record]]
molecule = "Cn1c(=O)n(-c2ccc(C(C)(C)C#N)cc2)c2c3cc(-c4cnc5ccccc5c4)ccc3ncc21"
measure_name = "IC50"
scale_unit = "nM"
measurement_qualifier = "="
measured_result = 235

[[record]]
molecule = "CCNC(=O)c1noc(-c2cc(C(C)C)c(O)cc2O)c1-c1ccc(CN2CCOCC2)cc1"
measure_name = "IC50"
scale_unit = "nM"
measurement_qualifier = "="
measured_result = 55.9

[[record]]
molecule = "C/C(O)=C(\\C#N)C(=O)Nc1cc(Br)ccc1Br"
measure_name = "IC50"
scale_unit = "nM"
measurement_qualifier = ">"
measured_result = 16000


----------
# Tested on: SKG-IIIa;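 note: cell growth inhibition, read out with a cell viability assay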
# Protocol: cells
# Format: functional, cell-based
# Experimental conditions: Homo sapiens
# Description: SANGER: Inhibition of human SKG-IIIa cell growth in a cell viability assay.
Measure name: IC50

[[record]]
query_smiles = "CO[C@@]12[C@H](COC(N)=O)C3=C(C(=O)C(C)=C(N)C3=O)N1C[C@@H]1N[C@@H]12"
measure_name = "IC50"
measured_result = "377 nM"

[[record]]
query_smiles = "CC(=O)c1c(C)c2cnc(Nc3ccc(N4CCNCC4)cn3)nc2n(C2CCCC2)c1=O"
measure_name = "IC50"
measured_result = "> 4000 nM"

[[record]]
query_smiles = "CCNC(=O)c1noc(-c2cc(C(C)C)c(O)cc2O)c1-c1ccc(CN2CCOCC2)cc1"
measure_name = "IC50"
measured_result = "178 nM"

[[record]]
query_smiles = "N#C/C(=C1/Nc2ccccc2S1)c1ccnc(NCCc2cccnc2)n1"
measure_name = "IC50"
measured_result = "> 8000 nM"


----------
IC50 for assorted molecules
# Test system: CHP-212
# Protocol: cells
# Assay type: functional, cell-based
# Experimental conditions: Homo sapiens
# Description: SANGER: Inhibition of human CHP-212 cell growth in a cell viability assay.
Measure name: IC50

[[record]]
query_smiles = "CO[C@@]12[C@H](COC(N)=O)C3=C(C(=O)C(C)=C(N)C3=O)N1C[C@@H]1N[C@@H]12"
measure_name = "IC50"
measured_result = "< 62.5 nM"

[[record]]
query_smiles = "O=c1[nH]c2ccccc2n1C1CCN(Cc2ccc(-c3nc4cc5[nH]cnc5cc4nc3-c3ccccc3)cc2)CC1"
measure_name = "IC50"
measured_result = "> 2560 nM"

[[record]]
query_smiles = "Cn1cc(/C=C2\\C(=O)Nc3cccnc32)c2ccccc21"
measure_name = "IC50"
measured_result = "> 2000 nM"

[[record]]
query_smiles = "CCNC(=O)c1noc(-c2cc(C(C)C)c(O)cc2O)c1-c1ccc(CN2CCOCC2)cc1"
measure_name = "IC50"
measured_result = "22.1 nM"


----------
# Test system: LB647-SCLC;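 note: cell growth inhibition, read out by a viability assay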
# Protocol: cells
# Format: functional, cell-based
# Experimental conditions: Homo sapiens
# Description: SANGER: Inhibition of human LB647-SCLC cell growth in a cell viability assay.
Recorded IC50 by entry
Measure name: IC50

[[record]]
molecule = "Cc1[nH]c(/C=C2\\C(=O)Nc3ccc(S(=O)(=O)Cc4c(Cl)cccc4Cl)cc32)c(C)c1C(=O)N1CCC[C@@H]1CN1CCCC1"
measured_result = "> 2 µM"

[[record]]
molecule = "Cc1ccc(NC(=O)c2cccc(C(C)(C)C#N)c2)cc1Nc1ccc2ncn(C)c(=O)c2c1"
measured_result = "> 4 µM"

[[record]]
molecule = "C/C(O)=C(\\C#N)C(=O)Nc1cc(Br)ccc1Br"
measured_result = "> 16 µM"

[[record]]
molecule = "CC(O)(CS(=O)(=O)c1ccc(F)cc1)C(=O)Nc1ccc(C#N)c(C(F)(F)F)c1 (centres undefined) [BICALUTAMIDE]"
measured_result = "> 1.02 µM"


----------
# Test system: LAMA-84
# Protocol: cells
# Assay type: functional, cell-based
# Experimental conditions: Homo sapiens
# Description: SANGER: Inhibition of human LAMA-84 cell growth in a cell viability assay.
Entries and their measured IC50 follow.
Measure name: IC50 (nM)

[[record]]
molecule = "Cc1ccc(NC(=O)c2cccc(C(C)(C)C#N)c2)cc1Nc1ccc2ncn(C)c(=O)c2c1"
measurement_qualifier = "="
measured_result = 192

[[record]]
molecule = "CC[C@]1(O)C[C@@H]2CN(CCc3c([nH]c4ccccc34)[C@@](C(=O)OC)(c3cc4c(cc3OC)N(C)[C@H]3[C@@](O)(C(=O)OC)[C@H](OC(C)=O)[C@]5(CC)C=CCN6CC[C@]43[C@@H]65)C2)C1 [VINBLASTINE]"
measurement_qualifier = "="
measured_result = 7.01

[[record]]
molecule = "C[C@]12O[C@H](C[C@]1(O)CO)n1c3ccccc3c3c4c(c5c6ccccc6n2c5c31)CNC4=O [LESTAURTINIB]"
measurement_qualifier = "="
measured_result = 48.5

[[record]]
molecule = "CCCS(=O)(=O)Nc1ccc(F)c(C(=O)c2c[nH]c3ncc(Cl)cc23)c1F [PLX-4720]"
measurement_qualifier = ">"
measured_result = 10000

[[record]]
molecule = "COc1cc(C)c(Sc2cnc(NC(=O)c3ccc(CNC(C)C(C)(C)C)cc3)s2)cc1C(=O)N1CCN(C(C)=O)CC1 (stereo unspecified)"
measurement_qualifier = ">"
measured_result = 10200

[[record]]
molecule = "C/C=C(/C)C(=O)O[C@H]1C(C)=C2[C@H]([C@@H]1OC(=O)CCCCCCC)[C@@](C)(OC(C)=O)C[C@H](OC(=O)CCC)[C@@]1(O)[C@H]2OC(=O)[C@@]1(C)O [THAPSIGARGIN]"
measurement_qualifier = "="
measured_result = 19.4


----------
Here, each record is paired with measured pIC50 data.
# System: LB1047-RCC;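 note: inhibition of cell growth, determined with a cell viability assay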
# Protocol: cells
# Assay type: functional, cell-based
# Experimental conditions: Homo sapiens
# Description: SANGER: Inhibition of human LB1047-RCC cell growth in a cell viability assay.
pIC50: −log10 of the molar value.
Measure name: pIC50

[[record]]
compound = "CCNc1cc(N[C@H]2CC[C@@H](O)CC2)nc(Nc2ccc3c(ccn3Cc3ccccc3)c2)n1"
measurement_qualifier = "<"
measured_result = 5.29

[[record]]
compound = "Fc1cc(-c2cc[nH]/c(=N/c3ccc(-n4cnc(N5CCOCC5)n4)cc3)n2)cc(N2CCOCC2)c1"
measurement_qualifier = "="
measured_result = 6.40

[[record]]
compound = "Cc1[nH]c(/C=C2\\C(=O)Nc3ccc(S(=O)(=O)Cc4c(Cl)cccc4Cl)cc32)c(C)c1C(=O)N1CCC[C@@H]1CN1CCCC1"
measurement_qualifier = "<"
measured_result = 5.70

[[record]]
compound = "C/C=C(/C)C(=O)O[C@H]1C(C)=C2[C@H]([C@@H]1OC(=O)CCCCCCC)[C@@](C)(OC(C)=O)C[C@H](OC(=O)CCC)[C@@]1(O)[C@H]2OC(=O)[C@@]1(C)O"
measurement_qualifier = "="
measured_result = 8.15

[[record]]
compound = "CCn1c(-c2nonc2N)nc2cnc(Oc3cccc(NC(=O)c4ccc(OCCN5CCOCC5)cc4)c3)cc21 [GSK-269962A]"
measurement_qualifier = "<"
measured_result = 5.60

[[record]]
compound = "CC(=O)c1c(C)c2cnc(Nc3ccc(N4CCNCC4)cn3)nc2n(C2CCCC2)c1=O"
measurement_qualifier = "="
measured_result = 6.03

[[record]]
compound = "Cc1ccc(NC(=O)c2cccc(C(C)(C)C#N)c2)cc1Nc1ccc2ncn(C)c(=O)c2c1"
measurement_qualifier = "<"
measured_result = 5.40

